# system-name: mouse Mcl-1 with truncations of 151 amino acid residues at its N-terminus and 23 residues at its C-terminus (mouse) (UniProt P97287)
# Sequence (P97287 152-308): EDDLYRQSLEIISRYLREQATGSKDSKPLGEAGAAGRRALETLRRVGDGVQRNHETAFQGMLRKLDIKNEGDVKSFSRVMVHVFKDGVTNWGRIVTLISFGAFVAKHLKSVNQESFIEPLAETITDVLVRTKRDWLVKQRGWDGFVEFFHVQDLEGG
# test-name: competition phage ELISA
FLAG = FLAG tag
So basically, if IC50 comes in under 40 nM it's MET, and if it's 40 nM or more it's NOT MET.

Ask | Lab note: confirm whether the reported IC50 for this binder is below 40 nM, equality not counting. binder: PSATMGQVGRQLAIIGDDINRRYDSE [Bak BH3 S3A, phage-displayed]
Reply | MET

Ask | Confirm or reject: IC50 of {FLAG}-RAELPPEFAAQARKIGDKVYCTWSAP-{GGGT-g3(249-406)} [mNoxaA BH3 L12A, phage-displayed] lies strictly below 40 nM
Reply | NOT MET

More entries:
Ask | Quick check: IC50 of PSSTMGQVGRQLAIIGDDINRRYDSE [Bak BH3 wild type, phage-displayed] under 40 nM?
Reply | MET

Ask | Hi there! Is IC50 for {FLAG}-RAELPPEFAEQLRKIGDKVYCTWSAP-{GGGT-g3(249-406)} [mNoxaA BH3 A10E, phage-displayed] below 40 nM, do you know?
Reply | NOT MET

Ask | Here's an entry: QEDIIRNIARHLAQVGDSMDRSIPPG [Bid BH3 wild type, phage-displayed] . Is its IC50 below 40 nM?
Reply | NOT MET

Ask | Identify whether the binder PSSTMGQVGRQLAIIGDDINRRADSE [Bak BH3 Y23A, phage-displayed] records IC50 below 40 nM.
Reply | NOT MET

Ask | Problem: For the binder {FLAG}-RAELAPEFAAQLRKIGDKVYCTWSAP-{GGGT-g3(249-406)} [mNoxaA BH3 P5A, phage-displayed] , is IC50 under 40 nM?
Reply | MET
